Test system: NCI-H322M
Assay: relative viability (nuclei count vs DMSO), 5 days (fraction); higher = more cells survive
Conditions: first compound 0.8 µM
Known relative viability of a selection of compounds

Task item: Need relative viability of O=c1cc(-c2cccc3c2Sc2ccccc2S3)oc(N2CCOCC2)c1 + Cc1nc(Nc2ncc(C(=O)Nc3c(C)cccc3Cl)s2)cc(N2CCN(CCO)CC2)n1 [Dasatinib] (partner 0.075 µM) , thanks.
Reply: 0.249

Task item: // query relative viability value for entry O=c1cc(-c2cccc3c2Sc2ccccc2S3)oc(N2CCOCC2)c1 + CC(=O)Nc1cccc(-n2c(=O)n(C3CC3)c(=O)c3c(Nc4ccc(I)cc4F)n(C)c(=O)c(C)c32)c1 [Trametinib] (partner 0.02 µM)
Reply: 0.591

Task item: // query relative viability value for entry O=c1cc(-c2cccc3c2Sc2ccccc2S3)oc(N2CCOCC2)c1 + C[C@]1(O)C[C@@H](c2nc(-c3ccc4ccc(-c5ccccc5)nc4c3)c3c(N)nccn32)C1 [Linsitinib] (partner 1 µM)
Reply: 0.866

Task item: I'd like to know its relative viability. The compound in question is COc1nc(C)cnc1NS(=O)(=O)c1cccnc1-c1ccc(-c2nnco2)cc1 [Zibotentan] + CS(=O)(=O)N1CCN(Cc2cc3nc(-c4cccc5[nH]ncc45)nc(N4CCOCC4)c3s2)CC1 [Pictilisib] (partner 1 µM)
Reply: 0.533

Task item: I am curious: what relative viability value has been reported for O=c1cc(-c2cccc3c2Sc2ccccc2S3)oc(N2CCOCC2)c1 + CC(=O)c1c(C)c2cnc(Nc3ccc(N4CCNCC4)cn3)nc2n(C2CCCC2)c1=O [Palbociclib] (partner 0.5 µM) ?
Reply: 0.502
